System: COLO 205
Assay: NCI tumour cell line growth inhibition, 48 h
Activity calls are given as the source filed them. Rule as the data show it: active = GI50 up to about 1.1 µM and inactive = higher.
Outcomes: true (1) for active, false (0) for inactive

INSERT INTO measurements (molecule, category_label) VALUES
  ('COc1cc(/C=C2\N=C(c3ccccc3)N(c3cc4cc(Sc5ccccc5)ccc4[nH]3)C2=O)ccc1O', 'false (0)'),
  ('C1CCC(OC2CSC2)OC1 (stereo not drawn)', 'false (0)'),
  ('CCc1cc(=O)n(/C(C)=C/c2ccccc2)n1C', 'false (0)'),
  ('Cn1cnc([N+](=O)[O-])c1Sc1nc2ccccc2o1', 'false (0)'),
  ('CCCCCCC(=O)C/C(=N/NC(N)=S)C(=O)NC1C2CC3CC(C2)CC1C3 (stereo not drawn)', 'false (0)'),
  ('CC1=C(O)C(=O)C2C(=O)C1C(C)C2c1ccc(Cl)cc1 (stereo not drawn)', 'false (0)'),
  ('COc1ccc2nc(-c3ccc(OC(=O)N(C)C)cc3)cn2c1', 'false (0)'),
  ('Cc1[nH]n(-c2nc3c(c(=O)[nH]2)CCCC3)c(=O)c1CCO', 'false (0)'),
  ('CCN(CC)C(=O)N1CN(c2ccccc2)C2(CCN(CCCC3(c4ccc(F)cc4)OCCO3)CC2)C1=O', 'false (0)'),
  ('COc1ccc2c(C)c(Oc3c(Cl)c(Cl)c(O)c(C#N)c3C#N)oc2c1', 'false (0)'),
  ('COc1cc(OC)nc(NC(=O)NS(=O)(=O)c2cccc3ncn(C)c(=O)c23)n1', 'false (0)'),
  ('CCC1CCN=C(Cn2cc(C)c(=O)[nH]c2=O)N1 (stereo not drawn)', 'false (0)'),
  ('N#Cc1ncc(C(Cl)Cl)nc1Cl', 'false (0)'),
  ('O=C(CNc1ccccn1)Nn1cnc2ccc(S(=O)(=O)Nc3ccccn3)cc2c1=O', 'false (0)'),
  ('Cc1cccc(C(C)(C)C)c1NC(=O)CC1C(=O)Nc2ccccc2[S+]1[O-] (stereo not drawn)', 'false (0)'),
  ('Sc1nnc(COc2ccc(Cl)cc2)n1-c1ccccc1', 'false (0)'),
  ('C=C1CCCC(C)(C)C1CCC1(C)CCC(C(C)C(=O)OC)OO1 (stereo not drawn)', 'false (0)'),
  ('Cc1cccc(NC(=O)/C=C/c2ccc([N+](=O)[O-])cc2)c1', 'false (0)'),
  ('O=C1NCC(CSc2nc3cc(C4CCCc5c4[nH]c4ccccc54)ccc3o2)N1 (stereo not drawn)', 'false (0)'),
  ('CC[C@@H](C)[C@@H]1NC(=O)C(C(C)=O)=C1O', 'false (0)'),
  ('CCCCCCCC(=O)NS(=O)(=O)c1ccccc1', 'false (0)'),
  ('O=S(=O)(O)c1ccc2c(/N=N/c3ccc(S(=O)(=O)O)c4ccccc34)c(O)c(S(=O)(=O)O)cc2c1', 'false (0)'),
  ('COc1cc2c(c(OC)c1OC)-c1ccc(SC)cc1C(O)CC2 (stereo not drawn)', 'true (1)');

###

Test system: SW-620
Assay: NCI tumour cell line growth inhibition, 48 h
Activity calls are given as the source filed them. No stated cut-off is given here; in the data, active = GI50 up to about 1.1 µM and inactive = higher.
property name: GI50

INSERT INTO assay_data (molecule, result) VALUES
  ('CN(C)C(=O)OC1C(=O)N(C)c2ccc(Cl)cc2C2(c3ccccc3)N1C2(Cl)Cl (centres undefined)', '> 100 µM (inactive)'),
  ('CCn1c2ccccc2c2cc(NC(=O)c3c(C)[nH]c(=O)[nH]c3=S)ccc21', '31.7 µM (inactive)'),
  ('CCOC(=O)C1=C(C)N(Cc2ccc(Cl)cc2Cl)C2(O)C=CC(=O)C3C(=O)N(c4ccccc4)C(=O)C132 (centres undefined)', '1.32 µM (inactive)'),
  ('CS(=O)(=O)c1nc(Cl)c(Cl)c(C#N)c1Cl', '1.14 µM (inactive)'),
  ('CCCCCC/C=C1\CCC(CN2CCOCC2)C1=O (centres undefined)', '8.2 µM (inactive)'),
  ('Cc1cn([C@H]2C[C@@H]3[C@@H](COC(CCl)N3O)O2)c(=O)[nH]c1=O (some centres undefined)', '> 100 µM (inactive)'),
  ('CC(=O)Nc1c(C)cc(OCC(=O)O)cc1C', '> 100 µM (inactive)'),
  ('OCC12C3C4C1C1C2C3C41CO (centres undefined)', '> 100 µM (inactive)'),
  ('Cn1cnc([N+](=O)[O-])c1Sc1nc2ccccc2o1', '3.72 µM (inactive)'),
  ('N#Cc1c(N)nc(SCc2ccccc2)c(C#N)c1-c1ccc(O)cc1', '15.2 µM (inactive)'),
  ('O=C1Nc2ccc(Br)cc2/C1=C/C(=O)c1ccccc1', '2.25 µM (inactive)'),
  ('CN(C(=O)c1ccc(Cl)cc1)C(=S)N1CCN(c2ccccc2)CC1', '> 100 µM (inactive)'),
  ('N#Cc1cc(C#N)c(N)nc1N', '> 100 µM (inactive)'),
  ('O=c1c2ccccc2[nH]c2c(O)ccc(O)c12', '18 µM (inactive)'),
  ('CC(C)C1=C2CCC3(C)C(CCC4C5C6OCC5(CCC6(C)C)CCC43C)C2(C)CC1 (centres undefined)', '22.5 µM (inactive)'),
  ('O=C1NCC(CSc2nc3cc(C4CCCc5c4[nH]c4ccccc54)ccc3o2)N1 (centres undefined)', '39.4 µM (inactive)'),
  ('C=C(Cl)/C(=C\Cl)CCC(Br)C(C)C (centres undefined)', '19.5 µM (inactive)'),
  ('O=C(CC1Sc2ccccc2NC1=O)Nc1cccc(Cl)c1 (centres undefined)', '34.4 µM (inactive)'),
  ('O=S(=O)(Nc1ccccc1S(=O)(=O)c1ccccc1)c1ccccc1', '92.3 µM (inactive)'),
  ('COc1ccc(Cc2cc3c(cc2OCC(=O)O)OCO3)cc1', '> 100 µM (inactive)'),
  ('Cc1ccc(S(=O)(=O)n2cc(-c3cnc(N)c(Br)n3)c3ccccc32)cc1', '1.04 µM (active)'),
  ('CC(C)C1OC(=O)/C=C/C=C/C=C/C=C/C=C/CC(O)CC(O)CC(O)CC(O)CC(O)CC(O)CC(O)CC(O)/C=C/C1C (centres undefined)', '> 100 µM (inactive)'),
  ('O=C(c1ccccc1)n1c(Cc2ccccc2)nc2cc(C34CC5CC(CC(C5)C3)C4)ccc21', '80.7 µM (inactive)'),
  ('CC(C)(C)C1=CC(=C(P(=O)(O)O)P(=O)(O)O)C=C(C(C)(C)C)C1=O', '> 50 µM (inactive)'),
  ('COc1ccc(C2C(C(=O)c3ccccc3)=C(O)C(O)(CC(=O)c3ccccc3)N2c2ccc(OC)cc2)cc1 (centres undefined)', '9.08 µM (inactive)'),
  ('COc1ccc(CN(CCN(C)C)c2ccccn2)cc1.Cn1c(=O)c2[nH]c(Br)nc2n(C)c1=O', '> 100 µM (inactive)'),
  ('O=C(CSCC(=O)N/N=C\c1ccc(-c2ccccc2)cc1)N/N=C\c1ccc(-c2ccccc2)cc1', '16.3 µM (inactive)'),
  ('COc1ccc(/C(Cl)=C(\C=O)c2ccc(Cl)c(Cl)c2)cc1OC', '4.12 µM (inactive)'),
  ('CCC(C)CN1C(=O)NC(C)(Cc2ccccc2)C1=O (centres undefined)', '> 100 µM (inactive)'),
  ('CC1=C(O)C(=O)C2C(=O)C1C(C)C2c1ccc(Cl)cc1 (centres undefined)', '> 100 µM (inactive)'),
  ('C/C=C1/CCC2c3[nH]c4ccccc4c3CCN2C1 (centres undefined)', '> 100 µM (inactive)'),
  ('OCCSCC(O)Cn1cnc2c(O)nc(Nc3ccccc3)nc21 (centres undefined)', '> 100 µM (inactive)'),
  ('CC(=O)c1cccn1/C=C(\OC(=O)OC(C)(C)C)c1ccc[nH]1', '83.9 µM (inactive)'),
  ('Cc1cccc(NC(Nc2cccc(C)c2)=C(C(Cl)=C(Cl)Cl)[N+](=O)[O-])c1', '14.8 µM (inactive)'),
  ('C[C@@]12C[C@@H](c3ccccc3O1)N1CCCCSC1=N2', '> 100 µM (inactive)'),
  ('[N-]=[N+]=Nc1ccccc1-[n+]1noc([O-])c1Br', '> 100 µM (inactive)'),
  ('COC1CCC(=C2C(=O)OC(C)(C)OC2=O)N1 (centres undefined)', '> 100 µM (inactive)'),
  ('CN1CC2(CCCCC2)C(O)C12C=CCCC2 (centres undefined)', '> 100 µM (inactive)'),
  ('C=C1C(=O)OC2C[C@H](C)C3CC(=O)C(C)=C3CC12 (some centres undefined)', '4.81 µM (inactive)'),
  ('Cc1cn(C2CC(O)C(Cn3nncc3Cn3ccc(=O)[nH]c3=O)O2)c(=O)[nH]c1=O (centres undefined)', '> 100 µM (inactive)'),
  ('CC(C)n1c(=O)c2nn3c(=O)n(C(C)C)c(=O)c3nn2c1=O', '> 100 µM (inactive)'),
  ('COc1ccc2c(c1)c(Cc1c(C)n(C)c3ccc(OC)cc13)c(C)n2C', '> 100 µM (inactive)'),
  ('Oc1ccc2c(c1)-c1c(c3ccccc3n1CCN1CCOCC1)CC2', '> 10 µM (inactive)'),
  ('CCN(CC)c1ncnc2c1ncn2CCNC(CO)(CO)CO', '> 100 µM (inactive)');
